- target_of_assay: T1, TNFR1 (Homo sapiens, UniProt P19438)
- T1 chain: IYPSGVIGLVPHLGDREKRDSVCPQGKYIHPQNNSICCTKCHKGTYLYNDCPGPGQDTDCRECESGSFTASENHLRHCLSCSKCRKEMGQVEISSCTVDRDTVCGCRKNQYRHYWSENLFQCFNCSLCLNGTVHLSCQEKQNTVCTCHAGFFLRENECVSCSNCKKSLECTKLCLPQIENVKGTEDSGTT
- test_name: yeast display SC50
endpoint: apparent Kd (screen) (nM)
Answers are plain numbers, in nM.

// worked examples, apparent Kd (screen) included
binder="E44G (designed binder) SMEEEVEKAAKEYEKKKKEAIEKHLEKLKAKDKEAAERFLKELGEAAKEYAKDEAKTMSEEEAKRRAKKYKEKVLLSELSEEEQKEIKEAEEKLVRTILKYVEEAAK" value_measured=2.48
binder="K27P (designed binder) SMEEEVEKAAKEYEKKKKEAIEKHLEPLKAKDKEAAERFLKELEEAAKEYAKDEAKTMSEEEAKRRAKKYKEKVLLSELSEEEQKEIKEAEEKLVRTILKYVEEAAK" value_measured=2.73
binder="E78P (designed binder) SMEEEVEKAAKEYEKKKKEAIEKHLEKLKAKDKEAAERFLKELEEAAKEYAKDEAKTMSEEEAKRRAKKYKEKVLLSPLSEEEQKEIKEAEEKLVRTILKYVEEAAK" value_measured=2.73
binder="M58L (designed binder) SMEEEVEKAAKEYEKKKKEAIEKHLEKLKAKDKEAAERFLKELEEAAKEYAKDEAKTLSEEEAKRRAKKYKEKVLLSELSEEEQKEIKEAEEKLVRTILKYVEEAAK" value_measured=2.73
binder="K48E (designed binder) SMEEEVEKAAKEYEKKKKEAIEKHLEKLKAKDKEAAERFLKELEEAAEEYAKDEAKTMSEEEAKRRAKKYKEKVLLSELSEEEQKEIKEAEEKLVRTILKYVEEAAK" value_measured=0.446
binder="K16H (designed binder) SMEEEVEKAAKEYEKHKKEAIEKHLEKLKAKDKEAAERFLKELEEAAKEYAKDEAKTMSEEEAKRRAKKYKEKVLLSELSEEEQKEIKEAEEKLVRTILKYVEEAAK" value_measured=0.446
binder="K68D (designed binder) SMEEEVEKAAKEYEKKKKEAIEKHLEKLKAKDKEAAERFLKELEEAAKEYAKDEAKTMSEEEAKRRADKYKEKVLLSELSEEEQKEIKEAEEKLVRTILKYVEEAAK" value_measured=1.27

Could you tell me which apparent Kd (screen) is on file for R66A (designed binder) SMEEEVEKAAKEYEKKKKEAIEKHLEKLKAKDKEAAERFLKELEEAAKEYAKDEAKTMSEEEAKRAAKKYKEKVLLSELSEEEQKEIKEAEEKLVRTILKYVEEAAK ? 20.2
